test.summary: Dose range finding study by intravenous route with toxicokinetics
Type: in vivo, beagle dogs
settings: male, beagle, dog, plasma, iv; Day 13; 0.8 mg/kg i.v.; mean n = 2
result.type: half-life (min)
Numbers only, in min.

Enquiry: Consider the compound "CC(C)C[C@@H]1NC(=O)[C@H](Cc2cccc(NC(=O)CCCS(N)(=O)=O)c2)NC(=O)[C@H](CC(=O)O)NC(=O)[C@H]2CCCN2C(=O)[C@H](CCC(=O)O)NC(=O)[C@@H](NC(=O)[C@H](CCC(N)=O)NC(=O)CN2CCN(C(=O)CN3CCN(CC(=O)O)CCN(CC(=O)O)CCN(CC(=O)O)CC3)CC2)CSCc2cccc(c2)CSC[C@@H](C(N)=O)NC(=O)[C@H](CO)NC(=O)[C@H](Cc2c[nH]c3ccccc23)NC(=O)[C@H]([C@@H](C)O)NC1=O" and give its measured half-life.
Return: 52.8

###

test.summary: Extended single-dose toxicity study including safety pharmacology endpoints, i.v. bolus (GLP)
Type: in vivo, beagle dogs
settings: beagle, dog, plasma, iv, 80 ug/kg; Male; 80 μg/kg single i.v. bolus; mean n = 3
result.type: clearance (mL/min/kg)
Answers are plain numbers, in mL/min/kg.

Enquiry: Entry "CC(C)C[C@@H]1NC(=O)[C@H](Cc2cccc(NC(=O)CCCS(N)(=O)=O)c2)NC(=O)[C@H](CC(=O)O)NC(=O)[C@H]2CCCN2C(=O)[C@H](CCC(=O)O)NC(=O)[C@@H](NC(=O)[C@H](CCC(N)=O)NC(=O)CN2CCN(C(=O)CN3CCN(CC(=O)O)CCN(CC(=O)O)CCN(CC(=O)O)CC3)CC2)CSCc2cccc(c2)CSC[C@@H](C(N)=O)NC(=O)[C@H](CO)NC(=O)[C@H](Cc2c[nH]c3ccccc23)NC(=O)[C@H]([C@@H](C)O)NC1=O" has what clearance?
Return: 10.1

###

test.summary: Extended single-dose toxicity study including safety pharmacology endpoints, i.v. bolus (GLP)
Type: in vivo, beagle dogs
settings: beagle, dog, plasma, iv, 16 ug/kg; Female; 16 μg/kg single i.v. bolus; mean n = 3; read-out: Vss
result.type: Vd

Enquiry: Entry CC(C)C[C@@H]1NC(=O)[C@H](Cc2cccc(NC(=O)CCCS(N)(=O)=O)c2)NC(=O)[C@H](CC(=O)O)NC(=O)[C@H]2CCCN2C(=O)[C@H](CCC(=O)O)NC(=O)[C@@H](NC(=O)[C@H](CCC(N)=O)NC(=O)CN2CCN(C(=O)CN3CCN(CC(=O)O)CCN(CC(=O)O)CCN(CC(=O)O)CC3)CC2)CSCc2cccc(c2)CSC[C@@H](C(N)=O)NC(=O)[C@H](CO)NC(=O)[C@H](Cc2c[nH]c3ccccc23)NC(=O)[C@H]([C@@H](C)O)NC1=O [DPI-4452] : reported Vd = ?
Return: 0.3 L/kg

###

test.summary: Extended single-dose toxicity study including safety pharmacology endpoints, i.v. bolus (GLP)
Type: in vivo, beagle dogs
settings: beagle, dog, plasma, iv, 80 ug/kg; Female; 80 μg/kg single i.v. bolus; mean n = 3
result.type: clearance

Enquiry: What clearance value was documented for this molecule, CC(C)C[C@@H]1NC(=O)[C@H](Cc2cccc(NC(=O)CCCS(N)(=O)=O)c2)NC(=O)[C@H](CC(=O)O)NC(=O)[C@H]2CCCN2C(=O)[C@H](CCC(=O)O)NC(=O)[C@@H](NC(=O)[C@H](CCC(N)=O)NC(=O)CN2CCN(C(=O)CN3CCN(CC(=O)O)CCN(CC(=O)O)CCN(CC(=O)O)CC3)CC2)CSCc2cccc(c2)CSC[C@@H](C(N)=O)NC(=O)[C@H](CO)NC(=O)[C@H](Cc2c[nH]c3ccccc23)NC(=O)[C@H]([C@@H](C)O)NC1=O [DPI-4452] ?
Return: 9.27 mL/min/kg
